Assay: anti-His antibody binders, primary screen, artefact control for SMM control protein annotation, biochemical, small-molecule microarray, 635 nm fluorescence (AID 1128);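 also: score merges feature fluorescence with signal-to-noise for each printed compound spot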
Conditions: anti-His Alexa647 antibody binding, higher = more signal
measured.attribute: composite z-score

Worked set:
{"columns": ["compound", "value.reported"],
 "data": [
  ["COc1cc(CO)cc(I)c1O[C@H]1C=C(C(=O)NCCO)C[C@@H](N(CCN2CCOCC2)C(=O)C2CCOC2)[C@@H]1O (some centres undefined)", -0.504],
  ["O=C1OCCC=C[C@H]2OC34C=CCN(CCN5CCOCC5)C(=O)[C@H]3N(CCCCCCO)C(=O)[C@@H]4C12 (some centres undefined)", 0.626]
]}

Asked: Quick one: give measured composite z-score for COC(=O)[C@@]1(Cc2ccc(OC)cc2)[C@H]2c3cc(C(=O)N(C)C)n(CCN4CNCC4=O)c3C[C@H]2CN1C(=O)c1ccccc1
Given back: 0.492

Asked: Quick one: give measured composite z-score for COc1ccc([C@H]2C[C@H]3C(Br)=C[C@@H]2C(=O)[C@]32CO2)cc1
Given back: 0.613

====

Each entry below carries its reported composite z-score.
Test system: Wnt5a (protein binding on small-molecule microarray)
Assay: Wnt5a binders on small-molecule microarray, primary screen, biophysical, 635/667 nm fluorescence (AID 1142);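 also: fluorescence read at 667 nm with signal to noise per printed feature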
Conditions: 635 nm fluorescence, higher = more signal
Please give the numeric answer without any surrounding text.

Worked set:
{"columns": ["compound", "subject.of.test", "value.reported"],
 "data": [
  ["COc1ccc(C(O)C2C=CC3C(=O)NC(=O)C3N2Nc2ccccn2)c2ccccc12 (configuration not stated)", "Wnt5a (protein binding on small-molecule microarray)", 0.0373],
  ["CC[C@@H]1C=C(C(=O)O)[C@H](c2ccco2)N1S(=O)(=O)c1ccc(C)cc1", "Wnt5a (protein binding on small-molecule microarray)", -0.291],
  ["C=CCNC(=O)[C@H]1[C@@H]2C(=O)O[C@@H](c3ccccc3)[C@@H](c3ccccc3)N2[C@@H](c2ccc(OCCO)cc2)[C@]12C(=O)Nc1ccc(C#CC3=CCCCC3)cc12", "Wnt5a (protein binding on small-molecule microarray)", 0.722],
  ["CC(C)N1C(=O)c2ccccc2[C@](C)(C(=O)NCc2ccccc2)[C@@H]1c1ccc(CO)cc1", "Wnt5a (protein binding on small-molecule microarray)", -0.111],
  ["CCCCC(=C=CC[C@@H](O)c1ccccc1OCCO)CCO", "Wnt5a (protein binding on small-molecule microarray)", -0.235],
  ["C=CCOC(=O)[C@H]1[C@@H]2C(=O)O[C@@H](c3ccccc3)[C@@H](c3ccccc3)N2[C@@H](c2ccc(OCCOC(=O)[C@H]3C[C@H]4C(=O)N5CCC[C@H]5C(=O)N4[C@H]3c3ccc(O)cc3)cc2)[C@]12C(=O)Nc1ccc(I)cc12", "Wnt5a (protein binding on small-molecule microarray)", 1.61]
]}

Please find the next compound below.
Asked: Quick one: give measured composite z-score for CCCC=C(CCC)[C@@H](NS(=O)(=O)c1cccs1)c1ccc(C(=O)OC)cc1
Given back: 0.247

====

Target: Fibroblast growth factor 2 (Homo sapiens)
Experiment: FGF2 binders on small-molecule microarrays, primary screen, biochemical, small-molecule microarray, 635/667 nm fluorescence (AID 1133)
Conditions: small-molecule microarray binding, FGF2, fluorescence 635/667; higher = more signal
composite z-score below 0.4 gives 0 (no); composite z-score at or above it gives 1 (yes).

{"columns": ["compound", "assigned.label"],
 "data": [
  ["COCCOC(=O)N1C(=O)[C@@]2(c3cc(C#CC4=CCCCC4)ccc31)[C@H](C(=O)Nc1nc3ccccc3s1)[C@H]1C(=O)O[C@H](c3ccccc3)[C@H](c3ccccc3)N1[C@@H]2c1ccccc1OCCO", "1 (yes)"]
]}

Asked: Has CCOC(=O)[C@H]1CC=C2CC1C(=O)N1CCC[C@@H]1[C@@H]2O[Si](C)(C)C(C)(C)C (some centres not stated) a recorded composite z-score greater than or equal to 0.4?
Given back: 0 (no)

Asked: Has C=CCN1C(=O)[C@]2(O[C@H](CCO)[C@@H]([Si](C)(C)c3ccc(OC)cc3)[C@@H]2C)c2cc(N3CCCCC3=O)ccc21 a recorded composite z-score greater than or equal to 0.4?
Given back: 0 (no)

Asked: Has C[N+](C)(C)CCCC[C@@H]1NC(=O)[C@@H]2C[C@H](C(=O)NCCCCCN)[C@H](c3cccc(OCCO)c3)N2C1=O a recorded composite z-score greater than or equal to 0.4?
Given back: 0 (no)

Asked: Has CC(CO)N1C(=O)[C@@H]2C3C(=O)OCCC/C=C\[C@H]3OC23C=CCN(c2ccc4ccccc4c2)C(=O)[C@@H]13 (some centres not stated) a recorded composite z-score greater than or equal to 0.4?
Given back: 0 (no)

Asked: Has COc1cc(CO)cc(I)c1O[C@H]1C=C(C(=O)NCCO)C[C@@H](N(CCN2CCOCC2)C(=O)C2CCOC2)[C@@H]1O (some centres not stated) a recorded composite z-score greater than or equal to 0.4?
Given back: 1 (yes)

Asked: Has CN(C)CCCCCCNC(=O)[C@@H]1C[C@@H]2C(=O)N[C@@H](CCCCN)C(=O)N2[C@@H]1c1cccc(OCCO)c1 a recorded composite z-score greater than or equal to 0.4?
Given back: 1 (yes)

====

Target: Dihydroorotate dehydrogenase (quinone), mitochondrial (Plasmodium falciparum (isolate 3D7))
Assay: PfDHODH enzyme inhibitors, primary screen, biochemical, C-terminal His tag, absorbance 600 nm (AID 1175);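 also: recombinant parasite enzyme with a five histidine tag at its C terminus; test concentration not given here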
Settings: DCIP absorbance 600 nm, called active from +8 up or from −8 down
Activity calls are given as the source filed them.
Parameter call: string, one of active, inactive

{"columns": ["molecule", "assigned.label"],
 "data": [
  ["COCCOC(=O)N1C(=O)[C@@]2(c3cc(C#Cc4ccc(OC)cc4)ccc31)[C@H](C(=O)N1CCCCCCC1)[C@H]1C(=O)O[C@H](c3ccccc3)[C@H](c3ccccc3)N1[C@@H]2c1ccc(OCCO)cc1", "inactive"],
  ["CC(C)N1C(=O)c2ccccc2[C@](C)(C(=O)NCc2ccccc2)[C@@H]1c1ccc(CO)cc1", "inactive"],
  ["O=C1OCCC/C=C\\[C@H]2OC34C=CCN(Cn5nnc6ccccc65)C(=O)[C@H]3N(CCO)C(=O)[C@@H]4C12 (stereo partly drawn)", "inactive"],
  ["CCCCCN1CC=CC23O[C@@H]4/C=C\\CCCOC(=O)C4[C@H]2C(=O)N(CCCO)[C@@H]3C1=O (stereo partly drawn)", "inactive"]
]}

Asked: Name the outcome recorded for COC(=O)C(CC#Cc1ccc2c(c1)[C@]1(C(=O)N2)[C@H](C(=O)O)[C@H]2C(=O)O[C@H](c3ccccc3)[C@H](c3ccccc3)N2[C@@H]1c1ccc(O)cc1)C(=O)OC in the assay.
Given back: inactive

Asked: Name the outcome recorded for COc1ccc(CCNC(=O)[C@@]2(Sc3ccc(C)cc3)CC(=O)N(C3CCCCC3)[C@@H]2c2ccc(CO)cc2I)cc1 in the assay.
Given back: inactive

====

Test system: wheat germ agglutinin (Triticum aestivum), Alexa647-labelled
Experiment: wheat germ agglutinin binders on compound microarrays, profiling panel, artefact control for SMM control-protein annotation, biochemical, small-molecule microarray, 635/667 nm fluorescence (AID 1140);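 also: score merges 667 nm feature emission with signal to noise over triplicate slides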
Settings: WGA-A647 binding, 635 nm fluorescence, higher = more signal
measured.attribute: composite z-score
Please give the numeric answer without any surrounding text.

Worked set:
{"columns": ["molecule", "composite z-score"],
 "data": [
  ["COC(=O)[C@@]1(Cc2ccc(F)cc2)[C@H]2c3cc(C(=O)N(C)C)n(Cc4ccc(S(C)(=O)=O)cc4)c3C[C@H]2CN1C(=O)c1ccccc1", 0.766],
  ["CC(CO)N1C(=O)[C@@H]2C3C(=O)OCCC/C=C\\[C@H]3OC23C=CCN(c2ccc4ccccc4c2)C(=O)[C@@H]13 (some centres not stated)", 0.0312],
  ["C=CC[C@@]1(C(=O)N(C)C)N=C(c2ccc(OCCCO)cc2)O[C@@H]1c1ccccc1N=[N+]=[N-]", 1.33]
]}

Asked: Please report composite z-score with wheat germ agglutinin (Triticum aestivum), Alexa647-labelled for item CCCN1C(=O)[C@]2(CCS(=O)(=O)c3ccccc3)N=C(c3ccc(OCCCO)cc3)O[C@@H]2c2ccccc21 .
Given back: 0.737

Asked: Please report composite z-score with wheat germ agglutinin (Triticum aestivum), Alexa647-labelled for item COCCCN1C(=O)[C@@]2(c3ccc([N+](=O)[O-])cc3)CC(=O)N(C3CCCCC3)[C@@H]2c2ccc(CO)cc21 .
Given back: -0.0848

Asked: Please report composite z-score with wheat germ agglutinin (Triticum aestivum), Alexa647-labelled for item C=CCNC(=O)[C@H]1[C@@H]2C(=O)O[C@@H](c3ccccc3)[C@@H](c3ccccc3)N2[C@@H](c2ccccc2OCCO)[C@]12C(=O)Nc1ccc(C#CC3=CCCCC3)cc12 .
Given back: 0.394

Asked: Please report composite z-score with wheat germ agglutinin (Triticum aestivum), Alexa647-labelled for item CC[C@@H]1C=C(C(=O)O)[C@H](c2ccco2)N1S(=O)(=O)c1ccc(C)cc1 .
Given back: 0.839
